Test system: KRAS patient-derived spheroids with HUVEC/MSC, viability
Assay: Anticancer human tumor 323965-272-R-J2-PDC patient-derived pancreatic carcinoma cell line growth inhibition [KRAS2]
Conditions: second compound 3.16 µM; first compound 0.1 µM; stronger effect = lower value
Classify: fulfilled when viability, T/C is strictly less than 10%; not fulfilled when viability, T/C is not.

Molecule	Study System	Assigned Label
COc1cc(Nc2ncc3c(n2)-c2ccc(Cl)cc2C(c2c(F)cccc2OC)=NC3)ccc1C(=O)O + CNCc1ccccc1-c1csc(C(C)Nc2nc(C)nc3cc(OC)c(OC)cc23)c1	KRAS patient-derived spheroids with HUVEC/MSC, viability	not fulfilled
CCN1CCN(Cc2ccc(Nc3ncc(F)c(-c4cc(F)c5nc(C)n(C(C)C)c5c4)n3)nc2)CC1 + CC1OCC2(CCN(c3cnc(Sc4ccnc(N)c4Cl)c(N)n3)CC2)C1N	KRAS patient-derived spheroids with HUVEC/MSC, viability	not fulfilled

In plain terms, does COC(=O)c1ccc2c(C(=Nc3ccc(N(C)C(=O)CN4CCN(C)CC4)cc3)c3ccccc3)c(O)[nH]c2c1 + COc1cc2nc(C)nc(NC(C)c3cc(N)cc(C(F)(F)F)c3)c2cc1OC1CCOC1 come in under 10% for viability, T/C?
not fulfilled

Quick check: viability, T/C of CC1COCCN1c1cc(-c2ccnn2C)c2ccnc(-c3ccn[nH]3)c2n1 (stereo not given) + CNCc1ccccc1-c1csc(C(C)Nc2nc(C)nc3cc(OC)c(OC)cc23)c1 under 10%?
fulfilled

Confirm or reject: viability, T/C of Cn1ncnc1[C@H]1c2n[nH]c(=O)c3cc(F)cc(c23)N[C@@H]1c1ccc(F)cc1 + COc1cc2nc(C)nc(NC(C)c3cc(N)cc(C(F)(F)F)c3)c2cc1OC1CCOC1 lies strictly below 10%
not fulfilled

----------
Tested on: KRAS patient-derived spheroids with HUVEC/MSC, viability
Assay: Anticancer human tumor 323965-272-R-J2-PDC cell line growth inhibition [KRAS2];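 further: spheroids exposed to agents for 7 days; 100% = DMSO vehicle control viability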
Details: second compound 0.1 µM; first compound 0.316 µM; stronger effect = lower value
Assignment: determine reported viability, T/C for the given compounds.
Give bare numbers, in %.

A selection of reference data follows.
Compound	Study System	Property	Value Unit	Obs Value
CC(C)NCC(C(=O)N1CCN(c2ncnc3c2C(C)CC3O)CC1)c1ccc(Cl)cc1 (centres undefined) + COc1cc2nc(C)nc(NC(C)c3cc(N)cc(C(F)(F)F)c3)c2cc1OC1CCOC1	KRAS patient-derived spheroids with HUVEC/MSC, viability	viability, T/C	%	59.7
CC1COCCN1c1cc(-c2ccnn2C)c2ccnc(-c3ccn[nH]3)c2n1 (centres undefined) + COc1cc2nc(C)nc(NC(C)c3cc(N)cc(C(F)(F)F)c3)c2cc1OC1CCOC1	KRAS patient-derived spheroids with HUVEC/MSC, viability	viability, T/C	%	12.8
CCNC(=O)CC1N=C(c2ccc(Cl)cc2)c2cc(OC)ccc2-n2c(C)nnc21 (centres undefined) + C=CC(=O)N1CCN(c2nc(OCC3CCCN3C)nc3c2CCN(c2cccc4cccc(C)c24)C3)CC1CC#N	KRAS patient-derived spheroids with HUVEC/MSC, viability	viability, T/C	%	35.6
Cn1nccc1Nc1nccc(-c2cc3c(s2)C(C)(C)N(CCN2CCOCC2)C3=O)n1 + C=CC(=O)N1CCN(c2nc(=O)n(-c3c(C)ccnc3C(C)C)c3nc(-c4c(O)cccc4F)c(F)cc23)C(C)C1	KRAS patient-derived spheroids with HUVEC/MSC, viability	viability, T/C	%	46.8
CC(=O)OC12COC1CC(O)C1(C)C(=O)C(O)C3=C(C)C(OC(=O)C(O)C(NC(=O)OC(C)(C)C)c4ccccc4)CC(O)(C(OC(=O)c4ccccc4)C21)C3(C)C (centres undefined) + CNCc1ccccc1-c1csc(C(C)Nc2nc(C)nc3cc(OC)c(OC)cc23)c1	KRAS patient-derived spheroids with HUVEC/MSC, viability	viability, T/C	%	25.7

Record viability, T/C for all entries; do not skip any.
1. CCNC(=O)CC1N=C(c2ccc(Cl)cc2)c2cc(OC)ccc2-n2c(C)nnc21 (centres undefined) + COc1cc2nc(C)nc(NC(C)c3cc(N)cc(C(F)(F)F)c3)c2cc1OC1CCOC1
2. CC1(C)CCC(CN2CCN(c3ccc(C(=O)NS(=O)(=O)c4ccc(NCC5CCOCC5)c([N+](=O)[O-])c4)c(Oc4cnc5[nH]ccc5c4)c3)CC2)=C(c2ccc(Cl)cc2)C1 + CNCc1ccccc1-c1csc(C(C)Nc2nc(C)nc3cc(OC)c(OC)cc23)c1

44.2
86.2

Look up viability, T/C for the entries below, preserving their order.
1. COc1cc2nccc(Oc3ccc(NC(=O)C4(C(=O)Nc5ccc(F)cc5)CC4)cc3)c2cc1OC + CC1OCC2(CCN(c3cnc(Sc4ccnc(N)c4Cl)c(N)n3)CC2)C1N
2. CCN1CCN(Cc2ccc(Nc3ncc(F)c(-c4cc(F)c5nc(C)n(C(C)C)c5c4)n3)nc2)CC1 + CNCc1ccccc1-c1csc(C(C)Nc2nc(C)nc3cc(OC)c(OC)cc23)c1
3. COc1cc2nccc(Oc3ccc(NC(=O)C4(C(=O)Nc5ccc(F)cc5)CC4)cc3)c2cc1OC + C=CC(=O)N1CCN(c2nc(=O)n(-c3c(C)ccnc3C(C)C)c3nc(-c4c(O)cccc4F)c(F)cc23)C(C)C1
4. COC(=O)c1ccc2c(C(=Nc3ccc(N(C)C(=O)CN4CCN(C)CC4)cc3)c3ccccc3)c(O)[nH]c2c1 + COc1cc2nc(C)nc(NC(C)c3cc(N)cc(C(F)(F)F)c3)c2cc1OC1CCOC1
5. COc1cc2nccc(Oc3ccc(NC(=O)C4(C(=O)Nc5ccc(F)cc5)CC4)cc3)c2cc1OC + CNCc1ccccc1-c1csc(C(C)Nc2nc(C)nc3cc(OC)c(OC)cc23)c1
6. CC(=O)OC12COC1CC(O)C1(C)C(=O)C(O)C3=C(C)C(OC(=O)C(O)C(NC(=O)OC(C)(C)C)c4ccccc4)CC(O)(C(OC(=O)c4ccccc4)C21)C3(C)C (centres undefined) + CC1OCC2(CCN(c3cnc(Sc4ccnc(N)c4Cl)c(N)n3)CC2)C1N
7. CCNC(=O)CC1N=C(c2ccc(Cl)cc2)c2cc(OC)ccc2-n2c(C)nnc21 (centres undefined) + CC1OCC2(CCN(c3cnc(Sc4ccnc(N)c4Cl)c(N)n3)CC2)C1N

74.9
51.5
58.8
102
110
21.7
44.9

----------
System: KRAS patient-derived spheroids with HUVEC/MSC, viability
Assay: Anticancer human tumor 323965-272-R-J2-PDC cell line growth inhibition [KRAS2];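 further: spheroids exposed to agents for 7 days; 100% = DMSO vehicle control viability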
Details: second compound 3.16 µM; first compound 0.00316 µM; stronger effect = lower value
From the text: Multicellular complex tumor spheroid response to RAS pathway inhibitors in combination with a targeted agents in patient-derived cell lines with oncogenic KRAS variants from multiple cancer types A high-throughput screen of multi-cell type tumor spheroids was designed to identify active combinations of targeted small molecules and KRAS pathway inhibitors. […] Compounds. […] If the clinical Cmax for an agent had not been determined, the highest concentration tested was 10 microM. […]
Property: viability, T/C (%)
Give bare numbers, in %.

Molecule	Value Unit	viability, T/C
CC(=O)Nc1cccc(-n2c(=O)n(C3CC3)c(=O)c3c(Nc4ccc(I)cc4F)n(C)c(=O)c(C)c32)c1 + C=CC(=O)N1CCN(c2nc(OCC3CCCN3C)nc3c2CCN(c2cccc4cccc(C)c24)C3)CC1CC#N	%	22.4
CC(C)n1nc(-c2ccc3oc(N)nc3c2)c2c(N)ncnc21 + CNCc1ccccc1-c1csc(C(C)Nc2nc(C)nc3cc(OC)c(OC)cc23)c1	%	42.9

Count: 4. Required value per item: viability, T/C.
1. CN(C)C/C=C/C(=O)Nc1cc2c(Nc3ccc(F)c(Cl)c3)ncnc2cc1O[C@H]1CCOC1 + COc1cc2nc(C)nc(NC(C)c3cc(N)cc(C(F)(F)F)c3)c2cc1OC1CCOC1
2. CN(C)C/C=C/C(=O)Nc1cc2c(Nc3ccc(F)c(Cl)c3)ncnc2cc1O[C@H]1CCOC1 + CNCc1ccccc1-c1csc(C(C)Nc2nc(C)nc3cc(OC)c(OC)cc23)c1
3. CC(C)n1nc(-c2ccc3oc(N)nc3c2)c2c(N)ncnc21 + CC1OCC2(CCN(c3cnc(Sc4ccnc(N)c4Cl)c(N)n3)CC2)C1N
4. CC(=O)Nc1cccc(-n2c(=O)n(C3CC3)c(=O)c3c(Nc4ccc(I)cc4F)n(C)c(=O)c(C)c32)c1 + CNCc1ccccc1-c1csc(C(C)Nc2nc(C)nc3cc(OC)c(OC)cc23)c1

[59.5, 79.1, 21.4, 64.3]

For each of the molecules below, state viability, T/C.
1. CN(C)C/C=C/C(=O)Nc1cc2c(Nc3ccc(F)c(Cl)c3)ncnc2cc1O[C@H]1CCOC1 + CC1OCC2(CCN(c3cnc(Sc4ccnc(N)c4Cl)c(N)n3)CC2)C1N
2. CN(C)C/C=C/C(=O)Nc1cc2c(Nc3ccc(F)c(Cl)c3)ncnc2cc1O[C@H]1CCOC1 + C=CC(=O)N1CCN(c2nc(OCC3CCCN3C)nc3c2CCN(c2cccc4cccc(C)c24)C3)CC1CC#N

1: 27.4; 2: 19.4

Hello, the source for this data is PubChem BioAssay AID1963869, in case you need it.
